assay.comment: Cytotoxicity against human HEK293 cells assessed as reduction in cell viability at 100 uM after 72 hrs by MTT assay
Format: cell-based
conditions.used: read-out: INH
experimental.readout: cytotoxicity at 72 h, 100 µM (%)
Write down the numeric answer in % and omit the unit.

Qu. State the recorded cytotoxicity at 72 h, 100 µM for this entry: COc1ccc2[nH]c(-c3ccc(NC(=O)CCC(=O)O)cc3)nc2c1
Ans. 26.7

Qu. State the recorded cytotoxicity at 72 h, 100 µM for this entry: COC(=O)CCCC(=O)Nc1ccc(-c2nc3cc(OC)ccc3[nH]2)cc1
Ans. 50.5

Qu. State the recorded cytotoxicity at 72 h, 100 µM for this entry: O=C(O)CSCC(=O)Nc1ccc(-c2nc3cc(Cl)ccc3[nH]2)cc1
Ans. 23

Qu. State the recorded cytotoxicity at 72 h, 100 µM for this entry: O=C(O)CCCCC(=O)Nc1ccc(-c2nc3cc(F)ccc3[nH]2)cc1
Ans. 29

Qu. State the recorded cytotoxicity at 72 h, 100 µM for this entry: O=C(O)CSCC(=O)Nc1ccc(-c2nc3ccccc3[nH]2)cc1
Ans. 13.1
